- Test system: MS2 coat protein
- ASSAY NAME: apparent KD of MS2 coat protein; designed switch direction (-1 OFF switch, 1 ON switch): -1; higher = weaker reporter binding
- TEST CONDITIONS: Eterna round: R95; input ligand: none
MEASURED PARAMETER: apparent KD of MS2 coat protein (nM)
Give the value, in units of nM, as a plain number.

Reported apparent KD of MS2 coat protein of ACUAGCUUUUUGCAUUUUAGGUUUGUUGCUUCGUAUGUAACAUGAGGAUCACCCAUGUAUUACUGAUGUCGUCGUUU [JR_SV3TOV2_Sub090] (puzzle: Sensor v3, turn-off variant 2) : 18.5

Measured apparent KD of MS2 coat protein of UUAUUACAAGCAAGAUCCCACAUGAGGAUCACCCAUGUGCUCGUCUUAUAAGGUACUGUGACGAAAGUCACGGUACC [Sensor 3, v1 - 100] (puzzle: Sensor v3, turn-off variant 1) : 24.7

Recorded apparent KD of MS2 coat protein (sequence GCAGGCGACUAGGCUCGUCUUAUUUUGAGAAGAUUGAAAACAUGAGGAUCACCCAUGUUUGUGGGAGAGUUGGAGUG [JR_SV3TOV2_Sub013] (puzzle: Sensor v3, turn-off variant 2) ): 65.3

So for GAAAAGGUAGGAUAUACGAAAAGAAAGGGUAGAAGAAGAACACAUGAGGAUCACCCAUGUAGAAGGACCAAAAG [Mat - Exclusion 2 - Mod of my Tesla design - D1] (puzzle: Exclusion 2) , the logged apparent KD of MS2 coat protein turned out to be 16.5

Value of measured apparent KD of MS2 coat protein for the entry UUUUAGAGAGGAUAUAUUUAGUGAAACAUGAGGAUCACCCAUGUAAUUAAAUGGAUGUAAAUAGAAGGCUCAUUUA [Mat - Exclusion 5 - JL mod - D6] (puzzle: Exclusion 5) : 26.4

Record GGUCAAGAACAGAUCCGCGCUGCCCUCGACCGCUCAUUUACAUGAGGAUCACCCAUGUUUUUUGCUUGUCUUGUUAC [Vezageis] (puzzle: Sensor v3, turn-off variant 2) . Reported apparent KD of MS2 coat protein: 17.1

Recorded apparent KD of MS2 coat protein (sequence GAUAGAGAGCAGGAUAUCUUGGAUAAGUAUAGUAGAGAAGGGCUCACAUGAGGAUCACCCAUGUGGUCCUAGAU [JL Dibiri mod 11] (puzzle: Exclusion 6) ): 15

Entry GCUUGGCGAGGAUAUACAUGAGGAUCACCCAUGUGAGAGAAAGAAGUGAGGAAGAAAAGUAGAAGGCGCUGAGG [Mat - Exclusion 3 - Mod of Salish D60] (puzzle: Exclusion 3) ; apparent KD of MS2 coat protein = 75.4

Record GGAAAACAUGAGGAUCACCCAUGUAAGGAUAUGCAAAAGGAUAUAGAAGGAAGAAAAAGCAGAAGGUACAAAGG [salish99-ex1_r3_099] (puzzle: Exclusion 1) , field apparent KD of MS2 coat protein: 57.9

apparent KD of MS2 coat protein recorded for this sequence, UUGGAGAUAGGAUAUACGAGGAGAGUAGAGGGAAGGUGAGGACAUGAGGAUCACCCAUGUAGAAGGAUCAGGAG [JR_Exclu2_Sub067] (puzzle: Exclusion 2) , is 47.6

Lab book: apparent KD of MS2 coat protein of AGUAACCGUCACGAAAGUGAUGGUUACACAAGCAAAUGUACAUGAGGAUCACCCAUGUCCUCAUUUGCUCGUCUUGU [Sensor 3 - 48] (puzzle: Sensor v3, turn-off variant 2) noted as 121

For GAUUAUGCGAGCUUUAGGGACAUGAGGAUCACCCAUGUUCGUCUUAUUAGUCUAAGUGCACUGACAUACCUAAAUCU [JMF 83] (puzzle: Sensor v3, turn-off variant 1) the sequence record lists apparent KD of MS2 coat protein as 16.6

Query AAAUACAAGCAAAGAUCUUACAUGAGGAUCACCCAUGUGCUCGUCUUAUAAAGUACUAUCACGAAAGUGAUAGUACA [Sensor 3, v1 - 29] (puzzle: Sensor v3, turn-off variant 1) yields apparent KD of MS2 coat protein of 19.1

Please fill in: apparent KD of MS2 coat protein reported for ACAAGCUUAAAAGGUGAUAACAUGAGGAUCACCCAUGUUCGUCUUAUAAAGAUCCUAUGUCGAAAGACAUAGGAUCA [Sensor 3, v1 - 68] (puzzle: Sensor v3, turn-off variant 1) = 20.9

---

- Tested on: MS2 coat protein
- ASSAY NAME: apparent KD of MS2 coat protein; higher = weaker reporter binding
- TEST CONDITIONS: Eterna round: R107; input ligand: theophylline 20 uM
MEASURED PARAMETER: apparent KD of MS2 coat protein
Record the result as number plus unit.

Lab book: apparent KD of MS2 coat protein of UCAUUUUUCACGGCCGCCACUUCAAGGUCCUGAGGCUGGGCAACACAUGAGGAUCACCCAUGUCGAAGGACCGGGUGAAGCUACC [theeternabot_sameState_MS2_Trp_B_34] noted as 248 nM

Notebook: AGAGUUAGACAAAAGUCUAGCUCACCAGAAGGAGCGUCCGAAAGGACAGGUAGGUCGCUGGUGCUUGAGGAUCACCCAAGUUCCU [ArgAS 22 #OpenEnded #AlternativeMS2] , apparent KD of MS2 coat protein read as 121 nM

The sequence AGUAGCUGCCGAAGGAGCGCCGUGUUCCUACAUGAGGAUCACCCAUGUAGCGUUGGGUUACGGCAGGUAGGUCGCGGCAGAUAGG [#18 Same State - Arginine B] showed apparent KD of MS2 coat protein equal to 38.2 nM

Quick note, apparent KD of MS2 coat protein for ACAUGAGGAUCACCCAUGUACAUGAGGGAAGGAGCGGUACAUGAGCCAGGUAGGUCGCCCAUGAGCAUCAGCCAUGUACAUCAGC [vv,mmullin] landed at 97.6 nM

Query AGCAUCUAGUCGGCCGCCACUCUUAUUACAUGAGGAUCACCCAUGUUUAAUUCAUGGUUAUAUUUGAGGACCGGGACAUUUGCAU [JR_ExcTryptoB_Sub007] yields apparent KD of MS2 coat protein of 70.2 nM

Form field apparent KD of MS2 coat protein, entry AUACCUAAUGUUACAUUUUCCUUUUCAGAUACCAGACUUUACGUUGUCCCUUGGCAGCUGUAUCACAUGAGGAUCACCCAUGUUG [JR_SSTheophyA_Sub009] : 20.7 nM

Measured apparent KD of MS2 coat protein of GGCACCAGGAGAAGGAGCGUGAAGACAUGAGGAUCACCCAUGUAGAGGCGCCGACGGCGUUCGCAGGUAGGUCGCUCCUGGUGCC [#1 Same State - Arginine B Attempt #16 (HarryS)] : 32.3 nM

Lab note: measured apparent KD of MS2 coat protein of ACCGCAUCCGUAUAGGAUGCGGGCCAUGAAGGAGCGUGGGAAACCACAGGUAGGUCGCAUGGGUUACAUGAGGAUCACCCAUGUG [Jaws] was 517 nM

Given item UAAGCGCGAGGAGACGGAACCAAUCUUGUUCGAGGACCGGUACGGCCGCCACUCGGCGUAAAACAUGAGGAUCACCCAUGUGCAA [theeternabot_exclusion_MS2_Trp_A_18] , the value recorded as its apparent KD of MS2 coat protein is 15.6 nM

apparent KD of MS2 coat protein recorded for this sequence, GCACCAGGUACGGAUACCAGCUGCCAGCGUUACAUGAGGAUCACCCAUGUGAUCUGAAGUAGCCCUUGGCAGCUGUACCUGGUGC [SSThB NP+V+V2 #4 +-Same Structure] , is 207 nM

Record GAGCUGAUGUAGGCCGGAUAUCCGGGAGAUACCAGUACAGAAAUGUACCCUUGGCAGCUCUUUCUUACAUGAGGAUCACCCAUGU [Ex Theophylline A 27] , field apparent KD of MS2 coat protein: 15.4 nM

Given item CCAUCUUCAUCGGCCGCCACUGAACCAAGGAGACAUGAGGAUCACCCAUGUAUGGGAAACCAUCAUAGGACCGGGAUGAAGGUGG [doubleHookLine] , the value recorded as its apparent KD of MS2 coat protein is 56.1 nM

The reported value for ACGAAACAAGCGGCCGCCACUUCGUGGUGCUAAGGCUUGAUACUACAUGAGGAUCACCCAUGUCGAAGGACCGGGCUUGCGACUG [theeternabot_sameState_MS2_Trp_B_33] in terms of apparent KD of MS2 coat protein is 80 nM

apparent KD of MS2 coat protein recorded for this sequence, CGAGUGCUGUCGGCCGCCACUGCACAUGAGGAUCACCCAUGUAAAAGCUGGCUGUGACUGGUGUUCAGGACCGGGACAGGGUCUU [Inriedzaan] , is 13.8 nM

So for AGCUCUGAUACGGCCGCCACUAGAUGGUGUUGUAAGAGACGCCUACAUGAGGAUCACCCAUGUCAUAGGACCGGGUAUAAAUACA [theeternabot_sameState_MS2_Trp_B_8] , the logged apparent KD of MS2 coat protein turned out to be 30.7 nM

The reported value for ACUAGAGGUGGAAGGAGCGGGAGACAUGAGCAUCACAUGAGGAUCACCCAUGUAGGAUCAUCCCAGGUAGGUCGCCAUGUCGAAA [h.hgmullin] in terms of apparent KD of MS2 coat protein is 290 nM

response.value for GGGUGGUAGGCGGCCGCCACUGAUUUUCAUUUAUAGAUGACAUGAGGAUCACCCAUGUUUAUGUGCAGGACCGGGCCUGCUGUGG [aaaT] (field: apparent KD of MS2 coat protein) = 130 nM

What the record says about CGUGAUACUGGUAUACUCUGAAGAUCAAUUCGAGGACCGGUACGGCCGCCACUCGUUAGUAGACAUGAGGAUCACCCAUGUUAGU [theeternabot_exclusion_MS2_Trp_A_48] : apparent KD of MS2 coat protein is 20.6 nM

Per the record, GUUGUAUACUCGGCCGCCACUGAGAGAGUCAUGUAAACAUGAGGAUCACCCAUGUAAUAUAUAUACAGGACCGGGAGUGUGGUAA [4.G] has apparent KD of MS2 coat protein of 16 nM
